# target: cyclin B/CDK1 enzyme (Homo sapiens, UniProt P06493)
# Construct: purchased New England BioLabs; host or cells: Sf9 insect cells, recombinant baculovirus
# Sequence (P06493 whole entry): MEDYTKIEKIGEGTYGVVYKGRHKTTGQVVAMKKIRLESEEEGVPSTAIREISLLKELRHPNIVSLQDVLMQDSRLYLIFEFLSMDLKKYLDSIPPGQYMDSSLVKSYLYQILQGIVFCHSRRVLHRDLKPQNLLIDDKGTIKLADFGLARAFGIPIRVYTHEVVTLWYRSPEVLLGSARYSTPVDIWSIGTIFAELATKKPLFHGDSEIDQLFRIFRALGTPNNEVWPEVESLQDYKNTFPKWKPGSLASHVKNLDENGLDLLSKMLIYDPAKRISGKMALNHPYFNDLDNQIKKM
# Sequence (P14635 whole entry partner): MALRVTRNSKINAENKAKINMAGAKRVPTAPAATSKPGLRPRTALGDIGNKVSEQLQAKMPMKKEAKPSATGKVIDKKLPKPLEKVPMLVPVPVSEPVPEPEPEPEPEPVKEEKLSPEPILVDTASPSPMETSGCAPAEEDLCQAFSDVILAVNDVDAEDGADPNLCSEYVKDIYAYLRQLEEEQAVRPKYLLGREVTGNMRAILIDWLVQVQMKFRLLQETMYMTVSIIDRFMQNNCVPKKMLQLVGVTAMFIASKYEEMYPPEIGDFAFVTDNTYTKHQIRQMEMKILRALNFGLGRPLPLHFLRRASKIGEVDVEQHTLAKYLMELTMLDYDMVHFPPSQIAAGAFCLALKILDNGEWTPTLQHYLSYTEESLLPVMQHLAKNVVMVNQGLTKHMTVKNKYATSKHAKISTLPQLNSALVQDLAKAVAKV
# protocol_notes: CDK1 ELISA kinase assay (phospho-Rb ser 795 detection)
# Type: biochemical
# condition: In Vitro Enzyme Assay, cyclin B/CDK1, read-out: CDK1 IC50
pIC50: −log10 of the molar value.
measured_endpoint: pIC50

Consider the worked cases shown below.
{"compound": "O=C1NC(=O)c2ccc(-c3ccoc3)cc2/C1=C/Nc1ccc(CN2CCC[C@H]2CO)cc1", "pIC50": "< 4.30"}
{"compound": "COC[C@@H]1CCCN1Cc1ccc(N/C=C2\\C(=O)NC(=O)c3ccc(I)cc32)nc1", "pIC50": "< 4.30"}
{"compound": "CC(=O)c1ccc(-c2ccc3c(c2)C(=CNCc2ccc(O)c(O)c2)C(=O)NC3=O)cc1", "pIC50": "< 4.30"}
{"compound": "CCN1CCN(c2ccc(N/C=C3\\C(=O)NC(=O)c4ccc(-c5ccoc5)cc43)nc2)CC1", "pIC50": "< 4.30"}
{"compound": "COc1ccc(NC=C2C(=O)NCc3cc(-c4ccc[nH]4)ccc32)cc1", "pIC50": "< 4.30"}

Problem: State, in one line, measured pIC50 of CN1CCN(c2ccc(NC=C3C(=O)NC(=O)c4ccc(-c5ccc(C(=O)O)cc5)cc43)cc2)CC1
Result: < 4.30

Problem: State, in one line, measured pIC50 of CN1CCCC1c1ccc(N/C=C2\C(=O)NC(=O)c3ccc(-n4cccc4)cc32)nc1 (centres unmarked)
Result: < 4.30

Problem: State, in one line, measured pIC50 of NS(=O)(=O)c1ccc(CNC=C2C(=O)NC(=O)c3ccc(-c4ccc5[nH]ccc5c4)cc32)cc1
Result: 4.74

Problem: State, in one line, measured pIC50 of O=C1NC(=O)c2ccc(-c3ccco3)cc2/C1=C/NCc1cc(O)ccc1I
Result: < 4.30

Problem: State, in one line, measured pIC50 of COc1ccc(CNC=C2C(=O)NC(=O)c3ccc(-c4ccc[nH]4)cc32)cc1O
Result: 4.55

Problem: State, in one line, measured pIC50 of COc1ccc(CNC=C2C(=O)NC(=O)c3ccc(-c4ccccc4)cc32)cc1O
Result: 4.46

Problem: State, in one line, measured pIC50 of O=C1NC(=O)c2ccc(-c3ccc(F)cc3)cc2/C1=C/Nc1ccc(CN2CCC(CCO)CC2)cc1
Result: < 4.30

Problem: State, in one line, measured pIC50 of COc1cccc(CC=Cc2ccc3c(c2)C(=CNCc2ccc(O)c(O)c2)C(=O)NC3=O)c1O
Result: 4.43

Problem: State, in one line, measured pIC50 of O=C1NC(=O)c2ccc(N(CCC(F)(F)F)CCC(F)(F)F)cc2C1=CNCc1ccc(O)c(O)c1
Result: 4.74

Problem: State, in one line, measured pIC50 of CN(C)C1CCN(Cc2ccc(N/C=C3\C(=O)NC(=O)c4ccc(-c5ccoc5)cc43)cc2)C1 (centres unmarked)
Result: < 4.30
